# assay_explanation: The drug is tested on WLS-310 corresponding to human gut metagenome with ENA study accession number: PRJEB37062 and ENA sample accession number: ERS12561785 for biotransformation under anaerobic condition. The drug concentrations were measured over 9 timepoints collected between 0 and 24 hours of incubation by liquid-chromatography-coupled mass spectrometry (LC–MS); note: call rule not given here
# assay_conditions: 2 µM
quantity_kind: Bacterial Biotransformation

Check out these entries, answers already filled in.
| molecule | quantity_kind | meas_value |
| --- | --- | --- |
| Br.COc1ccc2c(c1)[C@]13CCCC[C@@H]1[C@H](C2)N(C)CC3.O [DEXTROMETHORPHAN HYDROBROMIDE] | Bacterial Biotransformation | Compound metabolized |
| CC(C)(C)NCC(O)c1cc(Cl)c(N)c(Cl)c1 (stereo not drawn) | Bacterial Biotransformation | Compound NOT metabolized |
| CN(C)CCC=C1c2ccccc2COc2ccccc21 [DOXEPIN] | Bacterial Biotransformation | Compound metabolized |
| O=C1N=C([O-])NC1(c1ccccc1)c1ccccc1.[Na+] [PHENYTOIN SODIUM] | Bacterial Biotransformation | Compound metabolized |
| CC(=O)OCC(=O)NCCCOc1cccc(CN2CCCCC2)c1 [ROXATIDINE ACETATE] | Bacterial Biotransformation | Compound metabolized |
| CCN(CC)C(=O)C1(c2ccccc2)CC1CN (stereo not drawn) | Bacterial Biotransformation | Compound NOT metabolized |

### Prompt I'd like to know its Bacterial Biotransformation. The molecule in question is O=C1CN2Cc3c(ccc(Cl)c3Cl)N=C2N1 [ANAGRELIDE]
### Response Compound metabolized

### Prompt I'd like to know its Bacterial Biotransformation. The molecule in question is Cc1cc2c(s1)Nc1ccccc1N=C2N1CCN(C)CC1
### Response Compound NOT metabolized

### Prompt I'd like to know its Bacterial Biotransformation. The molecule in question is C[C@]12C=CC(=O)C=C1CC[C@@H]1[C@@H]2C(=O)C[C@@]2(C)[C@H]1CC[C@]2(O)C(=O)CO
### Response Compound metabolized

### Prompt I'd like to know its Bacterial Biotransformation. The molecule in question is CCN(CC)CCNC(=O)c1ccc(NC(C)=O)cc1 [ACECAINIDE]
### Response Compound metabolized

### Prompt I'd like to know its Bacterial Biotransformation. The molecule in question is CC(C)[C@H]1CC[C@H](C(=O)N[C@H](Cc2ccccc2)C(=O)O)CC1 [NATEGLINIDE]
### Response Compound metabolized

###

# assay_conditions: human gut metagenome, 24 h, 2 µM
quantity_kind: Bacterial Biotransformation

| molecule | Bacterial Biotransformation |
| --- | --- |
| OC(c1cc(C(F)(F)F)nc2c(C(F)(F)F)cccc12)C1CCCCN1 (configuration not stated) [MEFLOQUINE] | Compound metabolized |
| CN(C)CCOC(c1ccc(Cl)cc1)c1ccccn1.O=C(O)/C=C\C(=O)O (configuration not stated) [CARBINOXAMINE MALEATE] | Compound NOT metabolized |
| CCS(=O)(=O)CCn1c([N+](=O)[O-])cnc1C [TINIDAZOLE] | Compound metabolized |
| Cc1nc(Nc2ncc(C(=O)Nc3c(C)cccc3Cl)s2)cc(N2CCN(CCO)CC2)n1 [DASATINIB ANHYDROUS] | Compound metabolized |

### Prompt I'd like to know its Bacterial Biotransformation. The molecule in question is CC(C)NCC(O)COc1ccc(CC(N)=O)cc1 (configuration not stated) [ATENOLOL]
### Response Compound metabolized

### Prompt I'd like to know its Bacterial Biotransformation. The molecule in question is CCc1cccc2c3c([nH]c12)C(CC)(CC(=O)O)OCC3 (configuration not stated) [ETODOLAC]
### Response Compound metabolized

### Prompt I'd like to know its Bacterial Biotransformation. The molecule in question is CC(=O)OCC(CCn1cnc2cnc(N)nc21)COC(C)=O [FAMCICLOVIR]
### Response Compound metabolized
